Data origin: ChEMBL document CHEMBL5058577

- System: HEK-293T
- experimentalProtocol: Multiplex assay against HEK293T
- Assay type: toxicity, cell-based
- experimentalParameters: human, 12 h, 10 µM, compound concentration 10 uM, replicate 2
Would you kindly list Population Normal (%) for each of these compounds?
A complete answer gives the number followed by the unit.

INPUT: // Population Normal (%) lookup, key: CN1CCN(c2ccc(Nc3c4ccccc4nc4ccccc34)cc2)CC1.Cl.Cl.O
OUTPUT: 99%

INPUT: # iterate: Cc1ccc(OCC(O)C(C)NC(C)C)c2c1CCC2.Cl (centres undefined)
OUTPUT: 81%

INPUT: # iterate: COc1cc(C(=O)N2CC[C@@H](O)[C@@H](N)C2)cc2nc(-c3cc4ccccc4n3CC3CC3)n(C)c12.Cl
OUTPUT: 81%

INPUT: # iterate: Nc1nc(-c2ccco2)c2cnn(Cc3ccccc3F)c2n1
OUTPUT: 87%

INPUT: # iterate: C[C@H](NC(=O)CNC(=O)c1cccc(Cl)c1)c1ccccc1
OUTPUT: 86%

INPUT: # iterate: CN(C)C(=O)Cn1cc(-c2ccc(-c3nnc4ccccn34)cc2)cn1
OUTPUT: 91%

INPUT: # iterate: O=C(O)CCC/C=C\CC1C(O)CC(O)C1/C=C/C(O)COc1cccc(Cl)c1 (centres undefined)
OUTPUT: 86%

INPUT: # iterate: S=C(NCCCc1c[nH]cn1)NCCCN(Cc1ccc(Cl)c(Cl)c1)c1ccc(Br)cn1
OUTPUT: 80%

INPUT: # iterate: CC(C)(O)C(=O)N1CCN(c2ccc(C(F)(F)F)c(C3=C(c4c[nH]c5ccccc45)C(=O)NC3=O)c2)CC1
OUTPUT: 92%

---

Would you kindly list Population Normal (%) for each of these compounds?
- System: U2OS
- experimentalProtocol: Multiplex assay against U2OS
- Type: toxicity, cell-based
- experimentalParameters: human, 48 h, 1 µM, compound concentration 1 uM, replicate 1
Expressed in %, but write only the number.

INPUT: // Population Normal (%) lookup, key: Cc1c(Cc2ccc3ccccc3n2)c2cc(F)ccc2n1CC(=O)O
OUTPUT: 98

INPUT: # iterate: Cc1sc2c(c1C)C(c1ccc(Cl)cc1)=N[C@H](CC(=O)OC(C)(C)C)c1nnc(C)n1-2
OUTPUT: 98

INPUT: # iterate: COCCCN1CCC(NC(=O)c2cc(Cl)c(N)c3c2OCC3)CC1 [PRUCALOPRIDE]
OUTPUT: 96

INPUT: # iterate: OCCCNc1cc(-c2ccnc(Nc3cccc(Cl)c3)n2)ccn1
OUTPUT: 83

INPUT: # iterate: N[C@](CC1c2ccccc2Oc2ccccc21)(C(=O)O)[C@H]1C[C@@H]1C(=O)O
OUTPUT: 97

INPUT: # iterate: CC(C)(C)c1ccc(CSc2cnn(C(C)(C)C)c(=O)c2Cl)cc1
OUTPUT: 96

INPUT: # iterate: O=c1nc2[nH]c3ccccc3nc-2c(=O)[nH]1
OUTPUT: 98

INPUT: # iterate: CN(C)C(=O)Cn1cc(-c2ccc(-c3nnc4ccccn34)cc2)cn1
OUTPUT: 97

INPUT: # iterate: C[C@@H]1CC(=O)Nc2cccc(-c3ccc4c(c3)c(-c3cnn(C)c3)nn4C)c2N1
OUTPUT: 98

INPUT: # iterate: COc1cc(C(=O)N2CC[C@@H](O)[C@@H](N)C2)cc2nc(-c3cc4ccccc4n3CC3CC3)n(C)c12.Cl
OUTPUT: 97

INPUT: # iterate: Nc1nc(CC(=O)Nc2ccc(CCNC[C@H](O)c3ccccc3)cc2)cs1
OUTPUT: 97

INPUT: # iterate: COC(c1ccccc1)(c1ccccc1)[C@H](Oc1nc(C)cc(C)n1)C(=O)O
OUTPUT: 97

INPUT: # iterate: Cc1cc(NC(=O)NCCN2CCC(O)(Cc3ccccc3)CC2)c2ccccc2n1
OUTPUT: 98

INPUT: # iterate: Cc1nn(C)c2nc(NNC(=O)Nc3cc(Cl)nc(Cl)c3)cc(C(C)C)c12
OUTPUT: 97

INPUT: # iterate: COc1cc(Nc2ncc3c(n2)-c2ccc(Cl)cc2C(c2c(F)cccc2OC)=NC3)ccc1C(=O)O
OUTPUT: 96

INPUT: # iterate: COCCn1c(C)c(C)s/c1=N\C(=O)C1C(C)(C)C1(C)C
OUTPUT: 98

INPUT: # iterate: COc1cc2nc(N3CCN(C(=O)COc4c(OC)cccc4C(C)C)CC3)nc(N)c2cc1OC.Cl.Cl
OUTPUT: 97

INPUT: # iterate: COc1c(Nc2ccc(S(C)(=O)=O)nc2C)ncnc1OC1CCN(C(=O)OC(C)C)CC1
OUTPUT: 97

INPUT: # iterate: Cc1ccc(OCC(O)C(C)NC(C)C)c2c1CCC2.Cl (centres undefined)
OUTPUT: 99

---

- Tested on: Fibroblast
- experimentalProtocol: Multiplex assay against human fibroblast
- Format: toxicity, cell-based
- experimentalParameters: 48 h, 10 µM, compound concentration 10 uM, replicate 1
Non-standard residues stand in square brackets, D forms with d. Residues, ends and D or L forms follow the SMILES beside them.
Would you kindly list Population Apoptotic (%) for each of these compounds?
Expressed in %, but write only the number.

INPUT: // Population Apoptotic (%) lookup, key: OCCCNc1cc(-c2ccnc(Nc3cccc(Cl)c3)n2)ccn1
OUTPUT: 91

INPUT: # iterate: N[C@](CC1c2ccccc2Oc2ccccc21)(C(=O)O)[C@H]1C[C@@H]1C(=O)O
OUTPUT: 45

INPUT: # iterate: O=C(O)CCC/C=C\CC1C(O)CC(O)C1/C=C/C(O)COc1cccc(Cl)c1 (centres undefined) [CLOPROSTENOL]
OUTPUT: 46

INPUT: # iterate: CC(C)C[C@@H]1NC(=O)[C@@H](C(C)C)NC(=O)[C@@H]2CCCN2C(=O)[C@@H](CC(=O)O)NC(=O)[C@@H](Cc2c[nH]c3ccccc23)NC1=O [BQ-123] (cyclo(L[dW][dD]P[dV]))
OUTPUT: 70

---

- Tested on: Fibroblast
- experimentalProtocol: Multiplex assay against human fibroblast
- Format: toxicity, cell-based
- experimentalParameters: 24 h, 10 µM, compound concentration 10 uM, replicate 2
Non-standard residues stand in square brackets, D forms with d. Residues, ends and D or L forms follow the SMILES beside them.
measurementName: Population Normal (%)
Expressed in %, but write only the number.

INPUT: // Population Normal (%) lookup, key: Cc1cc(=O)n(C)c2cc(N3C(=O)CC[C@H](NS(=O)(=O)CC(C)C)[C@H]3c3ccc(Cl)cc3)ccc12
OUTPUT: 91

INPUT: # iterate: CN(C)C/C=C/C(=O)Nc1ccc(C(=O)N2CCCC(Nc3ncc(Cl)c(-c4c[nH]c5ccccc45)n3)C2)cc1 (stereo not drawn)
OUTPUT: 93

INPUT: # iterate: CN1C[C@H](C(=O)N[C@]2(C)O[C@@]3(O)[C@@H]4CCCN4C(=O)[C@H](Cc4ccccc4)N3C2=O)C[C@@H]2c3cccc4[nH]cc(c34)C[C@H]21.CS(=O)(=O)O [DIHYDROERGOTAMINE MESYLATE]
OUTPUT: 94

INPUT: # iterate: COc1ccc2[nH]c(I)c(CCNC(C)=O)c2c1
OUTPUT: 95

INPUT: # iterate: C[C@H](NC(=O)CNC(=O)c1cccc(Cl)c1)c1ccccc1
OUTPUT: 94

INPUT: # iterate: CN1CCC(C(=O)c2cccc(NC(=O)c3c(F)cc(F)cc3F)n2)CC1
OUTPUT: 97

INPUT: # iterate: CC(C)(O)C(=O)N1CCN(c2ccc(C(F)(F)F)c(C3=C(c4c[nH]c5ccccc45)C(=O)NC3=O)c2)CC1
OUTPUT: 96

INPUT: # iterate: CC(C)C[C@H](CO)Nc1nc(S[C@@H](C)c2ccccc2)nc2nc(N)sc12
OUTPUT: 97

INPUT: # iterate: O=C(O)CCC/C=C\CC1C(O)CC(O)C1/C=C/C(O)COc1cccc(Cl)c1 (stereo not drawn)
OUTPUT: 96

INPUT: # iterate: Nc1nc(CC(=O)Nc2ccc(CCNC[C@H](O)c3ccccc3)cc2)cs1
OUTPUT: 95

INPUT: # iterate: COc1c(Nc2ccc(S(C)(=O)=O)nc2C)ncnc1OC1CCN(C(=O)OC(C)C)CC1
OUTPUT: 93

INPUT: # iterate: C=CCN1C[C@H](C(=O)N(CCCN(C)C)C(=O)NCC)C[C@@H]2c3cccc4[nH]cc(c34)C[C@H]21
OUTPUT: 89

INPUT: # iterate: COc1cc(C(=O)N2CC[C@@H](O)[C@@H](N)C2)cc2nc(-c3cc4ccccc4n3CC3CC3)n(C)c12.Cl
OUTPUT: 94

INPUT: # iterate: Cc1cc(O)c(-c2ccc([C@@H](C)CN(C)C)cc2)c2c1[nH]c(=O)c1sccc12
OUTPUT: 91

INPUT: # iterate: CC(C)C[C@@H]1NC(=O)[C@@H](C(C)C)NC(=O)[C@@H]2CCCN2C(=O)[C@@H](CC(=O)O)NC(=O)[C@@H](Cc2c[nH]c3ccccc23)NC1=O [BQ-123] (cyclo(L[dW][dD]P[dV]))
OUTPUT: 99

INPUT: # iterate: COCCn1c(C)c(C)s/c1=N\C(=O)C1C(C)(C)C1(C)C
OUTPUT: 96

INPUT: # iterate: N[C@](CC1c2ccccc2Oc2ccccc21)(C(=O)O)[C@H]1C[C@@H]1C(=O)O
OUTPUT: 97

INPUT: # iterate: O=C(Nc1cc(-c2ccccc2)nn1-c1ccccc1F)c1ccc([N+](=O)[O-])cc1
OUTPUT: 93

INPUT: # iterate: Cc1sc2c(c1C)C(c1ccc(Cl)cc1)=N[C@H](CC(=O)OC(C)(C)C)c1nnc(C)n1-2
OUTPUT: 95

INPUT: # iterate: Nc1nc(-c2ccco2)c2cnn(Cc3ccccc3F)c2n1
OUTPUT: 91

INPUT: # iterate: CC(C)(C)c1ccc(CSc2cnn(C(C)(C)C)c(=O)c2Cl)cc1
OUTPUT: 99

INPUT: # iterate: CCc1nn2c(C)cc(C)nc2c1Cc1ccc(-c2nnc(C3CCNCC3)o2)cc1
OUTPUT: 96

INPUT: # iterate: CN(C)C(=O)Cn1cc(-c2ccc(-c3nnc4ccccn34)cc2)cn1
OUTPUT: 90

INPUT: # iterate: O=c1ccc2ccc(OCCCCN3CCN(c4cccc5sccc45)CC3)cc2[nH]1
OUTPUT: 80

INPUT: # iterate: CCCCCCNC(=O)Nc1ccc(S(=O)(=O)Nc2ccc(CCNC[C@H](O)COc3ccc(O)cc3)cc2)cc1
OUTPUT: 95

INPUT: # iterate: Cc1ccc(OCC(O)C(C)NC(C)C)c2c1CCC2.Cl (stereo not drawn)
OUTPUT: 94

INPUT: # iterate: COc1cc2nc(N3CCN(C(=O)c4ccco4)CC3)nc(N)c2cc1OC.Cl [PRAZOSIN HYDROCHLORIDE]
OUTPUT: 92

INPUT: # iterate: C[C@@H]1CC(=O)Nc2cccc(-c3ccc4c(c3)c(-c3cnn(C)c3)nn4C)c2N1
OUTPUT: 94
